Target: T1, human FGFR2 protein (His-tag) residue 403-822 (human, UniProt P21802-3 403-822)
T1 construct: fibroblast growth factor receptor 2 (FGFR2), human, residues 403-822 (cytoplasmic part with the kinase domain); docking used residues 461-763 of PDB 7OZY, another construct; also called FGFR2 kinase domain; FGFR2 protein kinase domain; source: bought: Thermo Fisher Scientific
T1 sequence (P21802 402-821): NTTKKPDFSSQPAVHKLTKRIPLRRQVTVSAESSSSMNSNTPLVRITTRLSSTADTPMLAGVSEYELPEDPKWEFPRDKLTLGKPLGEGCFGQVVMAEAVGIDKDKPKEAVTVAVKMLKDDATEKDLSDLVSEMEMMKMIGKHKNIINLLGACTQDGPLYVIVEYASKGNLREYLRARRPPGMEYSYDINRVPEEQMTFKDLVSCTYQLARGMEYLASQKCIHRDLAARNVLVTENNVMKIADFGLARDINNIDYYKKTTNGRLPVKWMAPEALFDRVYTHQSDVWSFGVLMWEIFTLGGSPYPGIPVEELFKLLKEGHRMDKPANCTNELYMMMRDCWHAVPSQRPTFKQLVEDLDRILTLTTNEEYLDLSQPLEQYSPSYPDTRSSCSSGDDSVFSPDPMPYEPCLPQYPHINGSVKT
Test: SPR; FGFR2 (10 µg/mL) coupled through NHS/EDAC to 11-mercaptoundecanoic acid on gold chips; peptides flowed at 50 nM, 100 nM, 1 µM, 50 µM and 100 µM in 1X PBS, 30 µL/min, 2000 s; KD by non-linear regression, mean of three runs
Settings: both partners purified
assay-endpoint: Kd (µM)
Quick note: give the figure in µM, leave out the unit.

binder: ACSAGLPHVLTPEAGATGASCA (Newly designed fusion peptide of 22 residues; also called fusion trimer peptide; source: synthetic peptide, custom-ordered from GenScript) [ACSAGLPHVLTPEAGATGASCA (Trimer-pep)]
uom: µM
numeric-value: 7.53

Moving on to another binder below.
Fill in the blank: the reported Kd of ACSAG (Unconjugated peptide (no DOX, no fluorescein) in the SPR and antibody-staining experiments; also called ACSAG peptide; source: synthetic peptide, custom-ordered from GenScript) [ACSAG (A-pep)] is ____. 14.1
